The measured values listed here are drawn from PubChem BioAssay (NCI).

- Tested on: M14 melanoma
- assay-info: NCI-60 one-dose screen, 48 h
- assay-conditions: 10 µM unless noted
Compounds without any hit were thinned out: in the full panel of roughly 83,000, 20% have a hit. The source made the active and inactive calls. How the source made its calls: active means growth percent below 10; inactive means the rest.
// one of active, inactive, no free text

IN: Answer briefly: the call reported for `COc1cc(/C=C/C(=O)CC(=O)/C=C/c2cc(Br)c(OC)c(OC)c2)cc(Br)c1OC` in this assay.
OUT: inactive

IN: Answer briefly: the call reported for `COc1ccc(/C=C2\Oc3cc(C)c(Cl)cc3C2=O)cc1OC` in this assay.
OUT: inactive

IN: Answer briefly: the call reported for `Cc1nc2cc(Nc3nc(Nc4ccc(F)cc4)nc(N4CCN(C)CC4)n3)ccc2n1Cc1ccccc1` in this assay.
OUT: active

IN: Answer briefly: the call reported for `C=CC[P+](c1ccccc1)(c1ccccc1)c1ccccc1` in this assay.
OUT: inactive

IN: Answer briefly: the call reported for `Cc1ccc(N=c2nc3sc4c(C)ccc(C)c4n3c(N)c2C#N)cc1` in this assay.
OUT: inactive
